The reported numbers originate from the RNAGym collection of RNA variant scans (doi:10.7554/elife.90254).

B1: LINE1-full (parent)
chain: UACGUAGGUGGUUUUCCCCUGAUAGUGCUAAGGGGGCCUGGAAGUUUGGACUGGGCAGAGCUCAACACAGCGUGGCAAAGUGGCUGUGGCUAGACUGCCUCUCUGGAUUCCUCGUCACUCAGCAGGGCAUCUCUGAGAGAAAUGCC

Variants of: B1
Protocol: self-cleavage, relative activity (ratio to wild type); higher = more cleavage; in vitro, sequencing; the parent is a self-cleaving ribozyme
Measurement Type: self-cleavage

sequence_chain="UACGUAGGUGGUUUUCCCCUGAUUGUGCUAAGGGGGCCUGGAAGUUUGGAUUGGGCAGAGCUCAACACAGCGUGGCAAAGUGGCUGUGGCUAGACUGCCUCUCUGGAUUCCUCGUCACUCAGCAGGGCAUCUCUGAGAGAAAUGCC [A24U C51U]" measurement_type=self-cleavage test_value=0.84
sequence_chain="UACGUAGGUGGUUUUCCCCUGAUAGUGCUAAGGGGGCCUGGAAGUUUGGACUGGGCAGAGCUCAACACAGCGUGGCAAAGUGGCUGUGGCUAGACUGCCUCUCUGGGUUACUCGUCACUCAGCAGGGCAUCUCUGAGAGAAAUGCC [A107G C110A]" measurement_type=self-cleavage test_value=1.13
sequence_chain="UACGUAGGUGGUUUUCCCCUGAUAGUGCUAAGGGGGCCAGGAAGUUUGGACUGGGCAGAGCUCGACACAGCGUGGCAAAGUGGCUGUGGCUAGACUGCCUCUCUGGAUUCCUCGUCACUCAGCAGGGCAUCUCUGAGAGAAAUGCC [U39A A64G]" measurement_type=self-cleavage test_value=0.21
sequence_chain="UACGUAGGUGGUUUUCCCCUGAUAGUGCUAAGGGGGCCUGGAAGUUUGGACUGGGCAGAGCUCAUCACAGCGUGGCAAAGUGGCUGUGGCUAGACUGCCUCUCUGGAUUCCUCGUCGCUCAGCAGGGCAUCUCUGAGAGAAAUGCC [A65U A117G]" measurement_type=self-cleavage test_value=0.24
sequence_chain="UACGUAGGUGGUUUUCCCCUGAUAGUGCCAAGGGGGCCUGGAAGUUUGGACUGGGCAGAGCUCAACACAGCGUGGCAAAGUGGCUGUGGCUAGACUGCCUCUCUGGAUUCCUCGUCACUCAGCAGGACAUCUCUGAGAGAAAUGCC [U29C G127A]" measurement_type=self-cleavage test_value=0.64
